target: Grb2 SH2 (UniProt P62993); assay: SH2 binding enrichment of the phosphorylated peptide, bacterial display (enrichment ratio); higher = better substrate or ligand; peptides without Tyr show the background
Sequence (P62993 whole entry, looked up): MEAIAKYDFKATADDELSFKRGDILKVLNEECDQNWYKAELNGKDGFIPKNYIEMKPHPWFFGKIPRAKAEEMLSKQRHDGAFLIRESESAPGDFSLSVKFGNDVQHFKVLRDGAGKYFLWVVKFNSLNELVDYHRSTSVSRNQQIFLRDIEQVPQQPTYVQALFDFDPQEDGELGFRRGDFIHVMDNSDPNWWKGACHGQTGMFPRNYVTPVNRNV
observed property: SH2 binding enrichment
Write the number on its own, no unit after it.

Ask: For the sequence FSALDYKIFYY [WDPCP_Y210_L205F] , give its reported SH2 binding enrichment.
Reply: 1.22

Ask: For the sequence LEFGDYHPLKP [VPS35L_Y32] , give its reported SH2 binding enrichment.
Reply: 0.902

Ask: For the sequence RYVSRYIYNRE [HLA-DQB1_Y62_T60S] , give its reported SH2 binding enrichment.
Reply: 0.659

Ask: For the sequence QRALLYEDTLY [UNC13D_Y56_A59T] , give its reported SH2 binding enrichment.
Reply: 0.62

Ask: For the sequence IKRIDYEFVEM [ADA_Y84_A83D] , give its reported SH2 binding enrichment.
Reply: 0.967

###

In this section we review reported phosphorylation enrichment values for a set of sequences.
molecular target: Fyn (UniProt P06241); assay: phosphorylation enrichment, bacterial display (enrichment ratio); higher = better substrate or ligand; peptides without Tyr show the background
Sequence (P06241 whole entry, looked up): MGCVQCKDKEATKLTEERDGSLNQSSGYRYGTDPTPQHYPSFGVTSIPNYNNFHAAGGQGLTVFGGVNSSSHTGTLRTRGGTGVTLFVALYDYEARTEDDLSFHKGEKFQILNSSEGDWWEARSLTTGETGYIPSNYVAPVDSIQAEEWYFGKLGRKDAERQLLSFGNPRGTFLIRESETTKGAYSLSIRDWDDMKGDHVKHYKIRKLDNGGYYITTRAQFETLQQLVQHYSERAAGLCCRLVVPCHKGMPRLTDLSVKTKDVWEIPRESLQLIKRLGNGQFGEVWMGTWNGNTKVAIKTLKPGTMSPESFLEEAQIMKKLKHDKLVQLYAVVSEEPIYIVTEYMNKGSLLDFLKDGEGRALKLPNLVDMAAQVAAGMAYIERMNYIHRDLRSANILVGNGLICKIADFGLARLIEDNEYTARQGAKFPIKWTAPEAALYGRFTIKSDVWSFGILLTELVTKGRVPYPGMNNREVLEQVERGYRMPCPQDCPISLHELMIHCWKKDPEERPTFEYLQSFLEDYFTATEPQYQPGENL
Write the number on its own, no unit after it.

Use these answered entries as a reference point.
EVLKNYSQQKD [GOLGA4_Y1551_N1552S]: 0.438
VVEFGYEFFAK [PPP1CB_Y254_D252Y_YF]: 0.573
GCCSWYRGWAP [TIMP3_Y195_Y191C]: 0.651
RRAVKYLQMVG [AVPR2_Y117_C112R]: 0.778
QEMMEYRHQIQ [DES_Y324]: 0.559
VNFGAYINDFK [GLB1_Y488_YF]: 0.498
SPGGDYAAMGA [ERBB3_Y1276_G1271S]: 0.484
IVVVPYEPPEV [TP53_Y220_S215I]: 0.43

# ---- query sequence ----
Ask: For the sequence RKLVDYDSARH [BIN1_Y150] , give its reported phosphorylation enrichment.
Reply: 0.449

###

target: FGFR1 (UniProt P11362); test: phosphorylation enrichment, bacterial display (enrichment ratio); higher = better substrate or ligand; peptides without Tyr show the background
Sequence (P11362 whole entry, looked up): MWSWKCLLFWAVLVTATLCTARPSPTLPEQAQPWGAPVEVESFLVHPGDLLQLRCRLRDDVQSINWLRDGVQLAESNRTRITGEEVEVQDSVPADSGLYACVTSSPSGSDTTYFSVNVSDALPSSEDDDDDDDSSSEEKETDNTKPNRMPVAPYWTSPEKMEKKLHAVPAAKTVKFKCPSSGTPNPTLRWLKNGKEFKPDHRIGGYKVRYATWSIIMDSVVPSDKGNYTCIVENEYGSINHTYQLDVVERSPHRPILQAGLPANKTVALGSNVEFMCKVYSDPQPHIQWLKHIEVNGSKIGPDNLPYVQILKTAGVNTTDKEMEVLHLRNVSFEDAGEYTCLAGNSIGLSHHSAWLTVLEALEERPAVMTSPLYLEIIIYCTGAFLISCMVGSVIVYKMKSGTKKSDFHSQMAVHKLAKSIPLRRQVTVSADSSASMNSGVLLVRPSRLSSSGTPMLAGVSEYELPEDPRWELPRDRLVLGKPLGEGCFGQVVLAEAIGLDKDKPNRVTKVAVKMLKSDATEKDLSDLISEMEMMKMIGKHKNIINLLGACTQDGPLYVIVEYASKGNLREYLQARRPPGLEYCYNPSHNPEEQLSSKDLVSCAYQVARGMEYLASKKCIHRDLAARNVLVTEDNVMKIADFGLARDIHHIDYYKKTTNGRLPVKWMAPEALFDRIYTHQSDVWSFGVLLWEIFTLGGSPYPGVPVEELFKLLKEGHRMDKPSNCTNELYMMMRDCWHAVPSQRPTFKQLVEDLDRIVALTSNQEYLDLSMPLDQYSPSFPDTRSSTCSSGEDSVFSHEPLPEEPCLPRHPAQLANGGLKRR
observed property: phosphorylation enrichment
Write the number on its own, no unit after it.

QGRQTYLPQPA [DDR2_Y813]: 0.552

Ask: For the sequence AACQHYGVRTC [NR4A2_Y275] , give its reported phosphorylation enrichment.
Reply: 0.472

Ask: For the sequence PADRAYSWFQH [NDST1_Y711_YF] , give its reported phosphorylation enrichment.
Reply: 1.84

Ask: For the sequence GMTLSYLFREL [NDUFS8_Y74_P79L] , give its reported phosphorylation enrichment.
Reply: 0.53

Ask: For the sequence VRRRSYSAGNA [KANK1_Y324_K321R] , give its reported phosphorylation enrichment.
Reply: 0.549

Ask: For the sequence RPSRWYQFPVA [ANOS1_Y259_R262P] , give its reported phosphorylation enrichment.
Reply: 2.41

Ask: For the sequence IQKKYYRAILE [CHD7_Y1218] , give its reported phosphorylation enrichment.
Reply: 0.424

Ask: For the sequence LNLDTYQKRLR [PLA2G2D_Y126_R121L] , give its reported phosphorylation enrichment.
Reply: 0.69

Ask: For the sequence ALAHKYPGGGG [HBB_Y146_H147P] , give its reported phosphorylation enrichment.
Reply: 0.853

Ask: For the sequence CTTIRYNFMCN [TP53_Y234_H233R_YF] , give its reported phosphorylation enrichment.
Reply: 0.434

Ask: For the sequence HNLYSYPTKHE [MYO3A_Y1396] , give its reported phosphorylation enrichment.
Reply: 0.782

Ask: For the sequence HTVVSYAKVRA [CLOCK_Y378_E380K] , give its reported phosphorylation enrichment.
Reply: 0.917

Ask: For the sequence SWKRRYFLLRA [APBB1IP_Y331] , give its reported phosphorylation enrichment.
Reply: 0.614

Ask: For the sequence DEFLEHRRIVG [FAM221A_Y20_Y20H_YF] , give its reported phosphorylation enrichment.
Reply: 0.45

Ask: For the sequence EVVGKYSVHNA [MLH1_Y183_R182K] , give its reported phosphorylation enrichment.
Reply: 0.352

Ask: For the sequence FMLFQYLKQIE [RPAP3_Y569_D564Y_YF] , give its reported phosphorylation enrichment.
Reply: 0.468

Ask: For the sequence PVRIAYDRPRG [SUGP2_Y985] , give its reported phosphorylation enrichment.
Reply: 0.384

Ask: For the sequence LRFKQYLRNPP [SHC1_Y315] , give its reported phosphorylation enrichment.
Reply: 0.865

Ask: For the sequence TLNHQYDFTFD [CSNK1A1_Y292_YF] , give its reported phosphorylation enrichment.
Reply: 0.57

Ask: For the sequence SKLTIYDARPS [MTM1_Y277] , give its reported phosphorylation enrichment.
Reply: 0.606

Ask: For the sequence PLFRVYGLESL [INSR_Y94_L89P] , give its reported phosphorylation enrichment.
Reply: 0.58
